The measurements presented in this section are drawn from patent US8906946B2.

- assayed_system: human TRPM8 (Homo sapiens, UniProt Q7Z2W7)
- Sequence (Q7Z2W7 whole entry): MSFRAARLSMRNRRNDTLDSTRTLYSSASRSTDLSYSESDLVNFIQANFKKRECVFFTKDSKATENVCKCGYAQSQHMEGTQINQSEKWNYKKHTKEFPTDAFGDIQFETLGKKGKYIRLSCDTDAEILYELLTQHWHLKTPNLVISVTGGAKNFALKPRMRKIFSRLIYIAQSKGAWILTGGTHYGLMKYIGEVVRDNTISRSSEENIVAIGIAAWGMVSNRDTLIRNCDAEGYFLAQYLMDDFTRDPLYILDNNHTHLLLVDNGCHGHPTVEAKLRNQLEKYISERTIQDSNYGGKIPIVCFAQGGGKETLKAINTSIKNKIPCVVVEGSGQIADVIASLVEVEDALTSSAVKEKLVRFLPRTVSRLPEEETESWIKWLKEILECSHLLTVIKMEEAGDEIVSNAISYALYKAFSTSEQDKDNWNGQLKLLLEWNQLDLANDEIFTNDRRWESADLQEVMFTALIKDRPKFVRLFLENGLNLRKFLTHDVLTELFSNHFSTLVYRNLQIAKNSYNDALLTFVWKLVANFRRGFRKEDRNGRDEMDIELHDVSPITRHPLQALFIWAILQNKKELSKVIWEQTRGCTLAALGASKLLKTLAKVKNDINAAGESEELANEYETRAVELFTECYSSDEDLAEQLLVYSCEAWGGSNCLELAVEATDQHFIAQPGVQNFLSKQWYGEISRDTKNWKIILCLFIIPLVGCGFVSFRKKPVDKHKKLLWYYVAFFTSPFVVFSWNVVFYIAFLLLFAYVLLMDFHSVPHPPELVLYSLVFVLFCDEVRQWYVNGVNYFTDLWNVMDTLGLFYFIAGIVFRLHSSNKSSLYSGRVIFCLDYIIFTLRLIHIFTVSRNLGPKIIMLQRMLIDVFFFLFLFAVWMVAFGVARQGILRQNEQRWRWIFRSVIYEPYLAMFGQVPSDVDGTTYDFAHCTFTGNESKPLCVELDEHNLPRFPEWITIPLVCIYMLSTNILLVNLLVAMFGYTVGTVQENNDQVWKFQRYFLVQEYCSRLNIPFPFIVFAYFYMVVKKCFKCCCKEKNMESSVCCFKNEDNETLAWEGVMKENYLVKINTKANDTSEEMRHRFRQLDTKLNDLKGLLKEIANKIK
- protocol_description: Selectivity analysis, calcium influx assay (Fluo-8, FLIPR TETRA), hTRPM8 in CHO cells
- Assay type: cell-based
- Set-up: expressed in transfected cells; host or cells: CHO
- recorded_conditions: read-out: IC50 (TRPM8)
- Procedure: The following 3 cloned human channels were evaluated in this study. • 1. Cloned hTRPM8 channels (encoded by the human TRPM8 gene, stably expressed in CHO cells), • 2. Cloned hTRPV1 channels (encoded by the human TRPV1 gene, stably expressed in HEK293 cells), • 3. Cloned hTRPV4 channels (encoded by the human TRPV4 gene, stably expressed in CHO cells). […] The ability of compound (1) to act as an antagonist of TRPM8 was evaluated with a calcium influx assay. […]
readout_label: pIC50
Reminder that pIC50 is minus the log10 of a molar concentration.

Query block: Which pIC50 value belongs to "Cl.Clc1c(OCCNCc2ccco2)ccc2ccccc12" ?
Result block: 7.15

* * *

- protocol_description: Plasma Protein Binding, rat
- Format: in vitro ADME
readout_label: fraction unbound at 10 μM

Query block: Please report the recorded fraction unbound at 10 μM for "Cl.Clc1c(OCCNCc2ccco2)ccc2ccccc12" .
Result block: 0.03

* * *

- protocol_description: Plasma Protein Binding, human
- Type: in vitro ADME
readout_label: fraction unbound at 10 μM
// return a plain number; no unit text

Query block: I am curious: what fraction unbound at 10 μM value has been reported for "Cl.Clc1c(OCCNCc2ccco2)ccc2ccccc12" ?
Result block: 0.02

* * *

- assayed_system: human TRPM8 (Homo sapiens, UniProt Q7Z2W7)
- protocol_description: FLIPR384 capsazepine antagonist activity on menthol agonist response in selected TRPM8 clone
- Format: cell-based
- Design: expressed in transfected cells
- recorded_conditions: FLIPR384, antagonist from 100 nM to 316 μM
readout_label: pIC50
For clarity, pIC50 is expressed as the negative log10 of concentration in mol/L.

Query block: Reported pIC50 for Oc1cc2c(cc1O)CN(C(=S)NCCc1ccc(Cl)cc1)CCC2 [capsazepine, Capsazepine] : what is it?
Result block: 4.70

* * *

- assayed_system: CYP2D6 (Homo sapiens, UniProt P10635)
- Sequence (P10635 whole entry): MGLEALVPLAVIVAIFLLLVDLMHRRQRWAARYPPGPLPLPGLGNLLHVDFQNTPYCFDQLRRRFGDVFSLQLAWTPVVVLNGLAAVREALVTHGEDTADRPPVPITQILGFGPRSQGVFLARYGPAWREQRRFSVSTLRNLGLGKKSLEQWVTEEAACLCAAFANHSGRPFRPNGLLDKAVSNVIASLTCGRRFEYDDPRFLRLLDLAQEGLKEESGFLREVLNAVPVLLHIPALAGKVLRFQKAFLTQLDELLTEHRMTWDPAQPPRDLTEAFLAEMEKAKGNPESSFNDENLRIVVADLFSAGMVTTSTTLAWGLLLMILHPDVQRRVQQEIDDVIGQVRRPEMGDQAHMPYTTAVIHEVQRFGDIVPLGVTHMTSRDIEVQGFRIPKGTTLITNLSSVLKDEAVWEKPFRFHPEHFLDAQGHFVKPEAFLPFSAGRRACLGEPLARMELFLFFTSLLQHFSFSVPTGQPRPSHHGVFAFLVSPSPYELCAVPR
- protocol_description: CYP inhibition 2D6
- Type: in vitro ADME
- recorded_conditions: 2D6, 10 μM
readout_label: inhibition at 10 µM

Query block: Given the molecule "Cl.Clc1c(OCCNCc2ccco2)ccc2ccccc12" , what is its reported inhibition at 10 µM?
Result block: 100%

* * *

- assayed_system: CYP3A4 (Homo sapiens)
- Sequence (P08684 whole entry): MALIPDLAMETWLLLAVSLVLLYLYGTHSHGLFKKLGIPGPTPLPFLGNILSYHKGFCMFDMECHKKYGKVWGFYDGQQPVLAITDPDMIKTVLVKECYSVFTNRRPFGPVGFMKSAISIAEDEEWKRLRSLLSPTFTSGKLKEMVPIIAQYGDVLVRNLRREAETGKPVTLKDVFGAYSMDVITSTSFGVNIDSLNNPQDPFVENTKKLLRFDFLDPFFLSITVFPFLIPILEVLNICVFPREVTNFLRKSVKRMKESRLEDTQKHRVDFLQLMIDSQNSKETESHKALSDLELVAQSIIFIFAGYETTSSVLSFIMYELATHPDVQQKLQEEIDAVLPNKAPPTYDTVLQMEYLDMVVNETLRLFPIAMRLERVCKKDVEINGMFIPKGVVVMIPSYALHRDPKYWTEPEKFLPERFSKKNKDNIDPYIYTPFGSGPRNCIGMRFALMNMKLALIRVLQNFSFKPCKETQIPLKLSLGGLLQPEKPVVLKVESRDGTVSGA
- protocol_description: CYP inhibition 3A4
- Format: in vitro ADME
- recorded_conditions: 3A4, 10 μM
readout_label: inhibition at 10 µM

Query block: Which inhibition at 10 µM value belongs to Cl.Clc1c(OCCNCc2ccco2)ccc2ccccc12 [Compound 1] ?
Result block: 33.3%

* * *

- assayed_system: CYP1A2 (Homo sapiens)
- Sequence (P05177 whole entry): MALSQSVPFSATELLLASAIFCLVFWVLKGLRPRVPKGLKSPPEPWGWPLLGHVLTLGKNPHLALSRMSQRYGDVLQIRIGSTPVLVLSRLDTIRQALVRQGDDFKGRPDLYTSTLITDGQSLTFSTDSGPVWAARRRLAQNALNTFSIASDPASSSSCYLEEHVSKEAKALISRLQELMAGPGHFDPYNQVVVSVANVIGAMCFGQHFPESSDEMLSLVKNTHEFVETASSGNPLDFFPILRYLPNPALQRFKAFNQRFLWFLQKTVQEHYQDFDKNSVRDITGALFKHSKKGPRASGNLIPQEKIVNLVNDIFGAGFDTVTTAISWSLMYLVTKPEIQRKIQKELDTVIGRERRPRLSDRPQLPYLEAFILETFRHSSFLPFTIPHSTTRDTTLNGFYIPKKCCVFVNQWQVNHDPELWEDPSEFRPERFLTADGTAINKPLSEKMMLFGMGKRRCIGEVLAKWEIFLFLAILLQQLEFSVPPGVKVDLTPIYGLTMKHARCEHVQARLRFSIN
- protocol_description: CYP inhibition 1A2
- Format: in vitro ADME
- recorded_conditions: 1A2, 10 μM
readout_label: inhibition at 10 µM (%)
Return type: number; implicit unit %.

Query block: Lab note: need inhibition at 10 µM with CYP1A2 (Homo sapiens) for entry "Cl.Clc1c(OCCNCc2ccco2)ccc2ccccc12" , please look it up.
Result block: 98.8
